- MEASUREMENT_TARGET: human FXR (NR1H4) (Homo sapiens, UniProt Q96RI1)
- Sequence (Q96RI1 1-486): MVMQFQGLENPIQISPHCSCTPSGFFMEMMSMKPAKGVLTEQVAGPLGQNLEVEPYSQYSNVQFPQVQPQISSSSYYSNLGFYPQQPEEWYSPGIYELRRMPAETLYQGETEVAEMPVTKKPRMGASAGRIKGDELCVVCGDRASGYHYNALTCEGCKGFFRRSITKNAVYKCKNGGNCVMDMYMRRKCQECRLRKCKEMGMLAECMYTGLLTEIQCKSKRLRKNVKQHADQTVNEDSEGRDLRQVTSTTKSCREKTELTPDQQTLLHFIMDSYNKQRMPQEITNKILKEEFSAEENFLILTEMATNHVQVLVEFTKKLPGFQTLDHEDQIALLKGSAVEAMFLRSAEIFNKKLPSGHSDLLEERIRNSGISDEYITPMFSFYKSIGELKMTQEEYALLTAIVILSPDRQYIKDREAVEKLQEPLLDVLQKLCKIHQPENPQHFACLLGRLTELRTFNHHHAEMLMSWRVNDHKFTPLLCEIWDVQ
- PROCEDURE_TEXT: Human FXR (NR1H4) Assay: Gal4 promoter driven luciferase reporter transactivation in CHO cells (Indigo Bioscience kit IB00601)
- Assay type: cell-based
- ASSAY_SETUP: potency range, Human FXR (NR1H4) reporter assay in CHO cells; read-out: EC50
pEC50: −log10 of the molar value.
READOUT_TYPE: pEC50

COMPOUND: O=C(O)c1ccc2c(c1)CN(C(=O)N1C3CCC1CC(OCc1c(-c4ccccc4OC(F)(F)F)noc1C1CC1)C3)C2 (stereo not shown)
VAL: 7.00 to 8.00
--
COMPOUND: O=C(O)c1ccc(NC(=O)N2C3CCC2CC(OCc2c(-c4c(F)cccc4F)noc2C2CC2)C3)cc1-c1ccccc1 (stereo not shown)
VAL: 7.00 to 8.00
--
COMPOUND: CCOc1cc(C(=O)O)ccc1NC(=O)N1C2CCC1CC(OCc1c(-c3c(Cl)cccc3Cl)noc1C1CC1)C2 (stereo not shown)
VAL: > 8.00
--
COMPOUND: O=C(O)c1cccc(NC(=O)N2C3CCC2CC(OCc2c(-c4ccccc4OC(F)(F)F)noc2C2CC2)C3)c1 (stereo not shown)
VAL: 6.00 to 7.00
--
COMPOUND: O=C(O)c1cccc(NC(=O)N2C3CCC2CC(OCc2c(-c4ccccc4OC(F)(F)F)noc2C2CC2)C3)c1F (stereo not shown)
VAL: < 6.00

Q: Need pEC50, item COc1ccc(CNC(=O)N2C3CCC2CC(OCc2c(-c4c(Cl)cccc4Cl)noc2C2CC2)C3)cc1 (stereo not shown)
A: > 8.00

Q: Reported pEC50 for COC(=O)c1c(F)cc(NC(=O)N2C3CCC2CC(OCc2c(-c4c(Cl)cccc4Cl)noc2C2CC2)C3)cc1F (stereo not shown) : what is it?
A: > 8.00

====

Item-by-item account of Emax
- MEASUREMENT_TARGET: human FXR (NR1H4) (Homo sapiens, UniProt Q96RI1)
- PROCEDURE_TEXT: Human FXR (NR1H4) Assay: Gal4 promoter driven luciferase reporter transactivation in CHO cells (Indigo Bioscience kit IB00601)
- Assay type: cell-based
- ASSAY_SETUP: CHO, efficacy normalized to CDCA set as 100%; read-out: Efficacy (%)
Numeric only. Scale: %

Take a look at these entries with their results.
MOLECULE: O=C(O)c1ccc(NC(=O)N2C3CCC2CC(NCc2c(-c4c(Cl)cccc4Cl)noc2C2CC2)C3)cc1 (stereo not shown) [Example 826]
VAL: 63
--
MOLECULE: O=C(Nc1cccc(C2=CCCCC2)c1)N1C2CCC1CC(OCc1c(-c3c(Cl)cccc3Cl)noc1C1CC1)C2 (stereo not shown) [Example 711]
VAL: 157
--
MOLECULE: COc1ccc(CNC(=O)N2C3CCC2CC(OCc2c(-c4c(Cl)cccc4Cl)noc2C2CC2)C3)cc1 (stereo not shown) [Example 731]
VAL: 229

Q: Field request: Emax | item: CC(C)Oc1cc(C(=O)O)ccc1NC(=O)N1C2CCC1CC(OCc1c(-c3c(Cl)cccc3Cl)noc1C1CC1)C2 (stereo not shown) [Example 721]
A: 133

Q: Consider the molecule shown here: O=C(Nc1cccc(-c2ccncc2)c1)N1C2CCC1CC(OCc1c(-c3c(Cl)cccc3Cl)noc1C1CC1)C2 (stereo not shown) [Example 836] What is its recorded Emax?
A: 135

Q: Report Emax for CCOc1cc(C(=O)O)ccc1NC(=O)N1C2CCC1CC(OCc1c(C3CCC4(CC3)CC4)noc1C1CC1)C2 (stereo not shown) [Example 813] please.
A: 16

Q: What does the data say about its Emax? Entry: COC(=O)c1cc(F)c(NC(=O)N2C3CCC2CC(OCc2c(-c4c(Cl)cccc4Cl)noc2C2CC2)C3)cc1-c1ccccc1 (stereo not shown) [Example 794]
A: 80

Just for reference, patent US10597391B2 is where these values come from.
